Test system: HL60 cells
methodNotes: Anti-proliferation ability of compounds on HL60 cells (CellTiter-Glo)
Type: cell-based
appliedConditions: Homo sapiens, HL-60, 72 h, incubated 3 days, CTG luminescence, IC50 calculated by XLfit
pIC50: −log10 of the molar value.
resultType: pIC50

compound: Cc1ccc(N2CCN(Cc3ccc(C(=O)NCc4ccc5c(c4)CN(C4CCC(=O)NC4=O)C5=O)cc3)C(CO)C2)cc1Cl (centres unmarked) [KT-022]
pIC50: 8.99
//
compound: CN(CCc1ccccc1)Cc1ccc(C(=O)NCc2ccc3c(c2)CN(C2CCC(=O)NC2=O)C3=O)c(O)c1 (centres unmarked) [KT-034]
pIC50: 8.00
//
compound: O=C1CCC(N2Cc3cc(C(=O)NCc4ccc(CN(CCO)CCc5cccc6ccccc56)cc4)ccc3C2=O)C(=O)N1 (centres unmarked) [KT-003]
pIC50: 9.15
//
compound: CN(Cc1ccc(C(=O)NCc2ccc3c(c2)CN(C2CCC(=O)NC2=O)C3=O)cc1)CC(O)c1ccccc1 (centres unmarked) [KT-013]
pIC50: 8.46
//
compound: O=C1CCC(N2Cc3cc(C(=O)NCc4ccc(CN(Cc5ccccc5)C(=O)CO)cc4)ccc3C2=O)C(=O)N1 (centres unmarked) [KT-016]
pIC50: 8.52

[a] O=C1CCC(N2Cc3cc(CNC(=O)c4ccc(CN5CCN(c6ccc(OCCO)c(Cl)c6)CC5)cc4)ccc3C2=O)C(=O)N1 (centres unmarked) [KT-019]
[b] O=C1CCC(N2Cc3cc(C(=O)NCc4ccc(CN(CCc5cccc6ccccc56)C(=O)CS)cc4)ccc3C2=O)C(=O)N1 (centres unmarked) [KT-042]
[c] Cc1ccc(N2CCN(Cc3ccc(C(=O)NCc4ccc5c(c4)CN(C4CCC(=O)NC4=O)C5=O)c(O)c3)CC2)cc1Cl (centres unmarked) [KT-020]
[d] O=C1CCC(N2Cc3cc(C(=O)NCc4ccc(CN(CCc5ccccc5)C(=O)CCO)cc4)ccc3C2=O)C(=O)N1 (centres unmarked) [KT-033]
INPUT: Ordering: ascending pIC50. Please reply with the labels ordered as requested. Many thanks.
OUTPUT: b, d, a, c
(b: 7.47, d: 8.22, a: 8.55, c: 8.87)

###

Tested on: HL60 cells
methodNotes: Anti-proliferation ability of compounds on HL60 cells (CellTiter-Glo)
Assay type: cell-based
appliedConditions: Homo sapiens, HL-60, 72 h, incubated 3 days, CTG luminescence, IC50 calculated by XLfit
resultType: IC50

The following compounds have reported results that may help.
compound: O=C1CCC(N2Cc3cc(C(=O)NCc4ccc(CN(CCO)CCc5ccc(Cl)c(Cl)c5)cc4)ccc3C2=O)C(=O)N1 (centres unmarked) [KT-002]
subjectOfTest: HL60 cells
measuredValue: < 3.04 nM
//
compound: O=C1CCC(N2Cc3cc(NC(=O)CC4CCN(c5ncc(-c6cccc7cccnc67)cc5CO)CC4)ccc3C2=O)C(=O)N1 (centres unmarked) [KT-028]
subjectOfTest: HL60 cells
measuredValue: < 0.34 nM
//
compound: O=C1CCC(N2Cc3cc(C(=O)NCc4ccc(CN(CCO)CCc5ccccc5)cc4)ccc3C2=O)C(=O)N1 (centres unmarked) [KT-001]
subjectOfTest: HL60 cells
measuredValue: < 3.04 nM
//
compound: O=C1CCC(N2Cc3cc(C(=O)NCc4ccc(CNCCc5cccc6ccccc56)cc4)ccc3C2=O)C(=O)N1 (centres unmarked) [KT-025]
subjectOfTest: HL60 cells
measuredValue: < 3.04 nM

INPUT: Find the recorded IC50 belonging to O=C1CCC(N2Cc3cc(NC(=O)CC4CCN(c5ncc(-c6nccc7ccccc67)cc5CO)CC4)ccc3C2=O)C(=O)N1 (centres unmarked) [KT-030] and report it.
OUTPUT: < 0.34 nM
